Ki data for human a-thrombin (Homo sapiens) follow.

Example results:
| molecule | Ki |
| --- | --- |
| CSCC[C@H](NS(=O)(=O)Cc1ccccc1)C(=O)N[C@H](CCNc1ccncc1)Cc1ccccc1 [Bn 1 BnSO2 -- (S)-CH2 CH2 SCH3] | < 1000 nM |
| O=C(CNS(=O)(=O)Cc1ccc(Cl)cc1)N[C@H](CCNc1ccncc1)Cc1ccccc1 | < 1000 nM |

Next item in the queue.
-- ask Request: Ki, test system human a-thrombin (Homo sapiens), entry O=C(N[C@H](CCNc1ccncc1)Cc1ccccc1)[C@H](CO)NS(=O)(=O)c1ccc(Cl)c(Cl)c1 [Bn 1 3,4-di-Cl--PhSO2 -- (S)-CH2 OH]
-- reply < 1000 nM
